measurementTarget: Gag-Pol polyprotein [588-1027]/[588-1147] (Human immunodeficiency virus 1)
pIC50: −log10 of the molar value.
propertyName: pIC50

// lookup pIC50 | system=Gag-Pol polyprotein [588-1027]/[588-1147] (Human immunodeficiency virus 1) | key= O=C1Nc2ccc(Cl)cc2C(C#Cc2cc([N+](=O)[O-])ccn2)(C2CC2)N1 (stereo unspecified)
< 5.00
